Values were extracted from patent US6162417A.

- ASSAY EXPLANATION: Regional brain uptake with and without preblocking by paroxetine or GBR 12909 (Table 5)
- Assay type: in vivo, Sprague Dawley rats
- APPLIED CONDITIONS: rat, prefrontal cortex, iv, 60 min, serotonin blocker paroxetine 5 mg/kg i.v. 15 min prior, read-out: Prefrontal Cortex uptake
ENDPOINT: tissue uptake at 1 h (%ID/g)
# number only, unit %ID/g dropped from output

For [123I]c1ccc([C@@H]2CN3CCC[C@@H]3c3ccccc32)cc1 [95% ee(6S, 10bR)-I-McN] the molecule record lists tissue uptake at 1 h as 1.98

====

- ASSAY EXPLANATION: Regional brain distribution of radioactivity after intravenous administration (Table 4)
- Type: in vivo, Sprague-Dawley rats
- APPLIED CONDITIONS: hypothalamus, iv; rat, i.v., 5 min, mean of three rats; read-out: Hypothalamus, mean % injected dose/gram
ENDPOINT: tissue uptake at 5 min
Please don't drop the unit; write it after the number.

What the record says about [123I]c1ccc([C@@H]2CN3CCC[C@@H]3c3ccccc32)cc1 [(+)-[^123 I]6] : tissue uptake at 5 min is 3.69 %ID/g

====

- ASSAY EXPLANATION: Regional brain uptake with and without preblocking by paroxetine or GBR 12909 (Table 5)
- Assay type: in vivo, Sprague Dawley rats
- APPLIED CONDITIONS: rat, hypothalamus, iv, 60 min, serotonin blocker paroxetine 5 mg/kg i.v. 15 min prior, read-out: Hypothalamus uptake
ENDPOINT: tissue uptake at 1 h (%ID/g)
A number alone suffices; assume %ID/g.

Entry [123I]c1ccc([C@@H]2CN3CCC[C@@H]3c3ccccc32)cc1 [95% ee(6S, 10bR)-I-McN] ; tissue uptake at 1 h = 2

====

- ASSAY EXPLANATION: Regional brain distribution of radioactivity after intravenous administration (Table 4)
- Format: in vivo, Sprague-Dawley rats
- APPLIED CONDITIONS: striatum, iv; rat, i.v., 120 min, mean of three rats; read-out: Striatum, mean % injected dose/gram
ENDPOINT: tissue uptake at 2 h (%ID/g)
Give your result in %ID/g as a bare value.

Value of tissue uptake at 2 h reported for the compound [123I]c1ccc([C@@H]2CN3CCC[C@@H]3c3ccccc32)cc1 [(+)-[^123 I]6] is 2.06

====

- ASSAY EXPLANATION: Regional brain distribution of radioactivity after intravenous administration (Table 4)
- Assay type: in vivo, Sprague-Dawley rats
- APPLIED CONDITIONS: striatum, iv; rat, i.v., 5 min, mean of three rats; read-out: Striatum, mean % injected dose/gram
- Excerpt: Regional Distribution of Radioactivity in Tissues of Unfasted Male Sprague-Dawley Rats Following Intravenous Administration iodophenyl)pyrrolo[2,1-a]isoquinoline The cerebellum contains a very low density of serotonin transporter sites and is taken as "background" in this analysis of regional uptake.
ENDPOINT: tissue uptake at 5 min (%ID/g)
Write the answer as a number in %ID/g, unit excluded.

For this molecule ( [123I]c1ccc([C@@H]2CN3CCC[C@@H]3c3ccccc32)cc1 [(+)-[^123 I]6] ), measured tissue uptake at 5 min is 3.43

====

- ASSAY EXPLANATION: Regional brain distribution of radioactivity after intravenous administration (Table 4)
- Type: in vivo, Sprague-Dawley rats
- APPLIED CONDITIONS: prefrontal cortex, iv; rat, i.v., 120 min, mean of three rats; read-out: Prefrontal Cortex, mean % injected dose/gram
ENDPOINT: tissue uptake at 2 h (%ID/g)
Please state the figure in %ID/g; there is no need to write the unit.

Value of measured tissue uptake at 2 h for the entry [123I]c1ccc([C@@H]2CN3CCC[C@@H]3c3ccccc32)cc1 [(+)-[^123 I]6] : 2.25
